- Tested on: MDA-MB-435s cells (human melanoma cells)
- assayOverview: MDA-MB-435s cell proliferation inhibitory assay (CellTiter-Glo)
- Assay type: cell-based
- setupConditions: Homo sapiens, MDA-MB-435S, 72 h, read-out: Proliferation inhibition IC50
# pIC50 listing for each entry below
# reply with the number alone; pIC50 is -log10 of concentration in mol/L

Examples from the recorded data:
>>> df
                                   compound                        targetortestsystem  obsvalue
0  CC[C@@]1(O)C(=O)OCc2c1cc1n(c2=O)Cc2c-1nc1cc(F)c(C)cc1c2[C@@H](N)C(F)(F)F [Example 40a]  MDA-MB-435s cells (human melanoma cells)      8.39
1  CC[C@@]1(O)C(=O)OCc2c1cc1n(c2=O)Cc2c-1nc1ccccc1c2[C@@H](C)N  MDA-MB-435s cells (human melanoma cells)      7.95
2  CC[C@@]1(O)C(=O)OCc2c1cc1n(c2=O)Cc2c-1nc1cc(F)c(C)cc1c2[C@H](C)NCCN(C)C [Example 25a]  MDA-MB-435s cells (human melanoma cells)      8.20
3  CC[C@@]1(O)C(=O)OCc2c1cc1n(c2=O)Cc2c-1nc1ccc(C(F)F)cc1c2[C@H](C)N [Example 32a]  MDA-MB-435s cells (human melanoma cells)      8.47
4  CC[C@@]1(O)C(=O)OCc2c1cc1n(c2=O)Cc2c-1nc1cc(F)c(C)cc1c2CO [Example 12b]  MDA-MB-435s cells (human melanoma cells)      8.49

Request: Respond only with pIC50 recorded for CC[C@@]1(O)C(=O)OCc2c1cc1n(c2=O)Cc2c-1nc1cc(F)c(C)c(C)c1c2[C@H](C)N [Example 29a]
Result: 8.68

Request: Respond only with pIC50 recorded for `CC[C@@]1(O)C(=O)OCc2c1cc1n(c2=O)Cc2c-1nc1ccccc1c2[C@H](C)N`
Result: 7.79

====

- assayOverview: in vitro
- setupConditions: human, Caco-2
# Papp A→B at 180 min, 100 μg/mL listing for each entry below

Examples from the recorded data:
                                   compound         obsvalue
0  CC[C@@]1(O)C(=O)OCc2c1cc1n(c2=O)Cc2c-1nc1cc(F)c(C)cc1c2[C@H](C)O [Example 12c]    96 ×10⁻⁶ cm/s
1  CC[C@@]1(O)C(=O)OCc2c1cc1n(c2=O)Cc2c-1nc1cc(F)c(C)cc1c2[C@@H](C)N   100 ×10⁻⁶ cm/s
2  CC[C@@]1(O)C(=O)OCc2c1cc1n(c2=O)Cc2c-1nc1cc(F)c(C)cc1c2[C@@H](C)NC(=O)CO [Example 13b]  56.1 ×10⁻⁶ cm/s
3  CC[C@@]1(O)C(=O)OCc2c1cc1n(c2=O)Cc2c-1nc1cc(F)c(C)cc1c2CO [Example 12b]  49.3 ×10⁻⁶ cm/s

Now look at this one.
Request: Respond only with Papp A→B at 180 min, 100 μg/mL recorded for CC[C@@]1(O)C(=O)OCc2c1cc1n(c2=O)Cc2c-1nc1cc(F)c(C)cc1c2CN [Compound A, reference compound]
Result: 68.8 ×10⁻⁶ cm/s
